tested on: KRAS patient-derived spheroids with HUVEC/MSC, viability; test: Anticancer human tumor 323965-272-R-J2-PDC patient-derived pancreatic carcinoma cell line growth inhibition [KRAS2]; conditions: second compound 3.16 µM; first compound 0.1 µM; active compounds read low
Recorded viability, T/C values for a group of compounds are listed next.

{"columns": ["compound", "viability, T/C"],
 "data": [
  ["O=C(c1cc(Cc2n[nH]c(=O)c3ccccc23)ccc1F)N1CCN(C(=O)C2CC2)CC1 + CC1OCC2(CCN(c3cnc(Sc4ccnc(N)c4Cl)c(N)n3)CC2)C1N", "40.9%"],
  ["CC(C)NCC(C(=O)N1CCN(c2ncnc3c2C(C)CC3O)CC1)c1ccc(Cl)cc1 (stereo not given) + CC1OCC2(CCN(c3cnc(Sc4ccnc(N)c4Cl)c(N)n3)CC2)C1N", "20.3%"],
  ["CC1(C)CCC(CN2CCN(c3ccc(C(=O)NS(=O)(=O)c4ccc(NCC5CCOCC5)c([N+](=O)[O-])c4)c(Oc4cnc5[nH]ccc5c4)c3)CC2)=C(c2ccc(Cl)cc2)C1 + C=CC(=O)N1CCN(c2nc(OCC3CCCN3C)nc3c2CCN(c2cccc4cccc(C)c24)C3)CC1CC#N", "6.48%"],
  ["CC(=O)OC12COC1CC(O)C1(C)C(=O)C(O)C3=C(C)C(OC(=O)C(O)C(NC(=O)OC(C)(C)C)c4ccccc4)CC(O)(C(OC(=O)c4ccccc4)C21)C3(C)C (stereo not given) + CNCc1ccccc1-c1csc(C(C)Nc2nc(C)nc3cc(OC)c(OC)cc23)c1", "4.54%"],
  ["CC1COCCN1c1cc(-c2ccnn2C)c2ccnc(-c3ccn[nH]3)c2n1 (stereo not given) + COc1cc2nc(C)nc(NC(C)c3cc(N)cc(C(F)(F)F)c3)c2cc1OC1CCOC1", "9.99%"],
  ["Cn1nccc1Nc1nccc(-c2cc3c(s2)C(C)(C)N(CCN2CCOCC2)C3=O)n1 + CNCc1ccccc1-c1csc(C(C)Nc2nc(C)nc3cc(OC)c(OC)cc23)c1", "78.5%"],
  ["CCN1CCN(Cc2ccc(Nc3ncc(F)c(-c4cc(F)c5nc(C)n(C(C)C)c5c4)n3)nc2)CC1 + CNCc1ccccc1-c1csc(C(C)Nc2nc(C)nc3cc(OC)c(OC)cc23)c1", "53.4%"],
  ["COC(=O)c1ccc2c(C(=Nc3ccc(N(C)C(=O)CN4CCN(C)CC4)cc3)c3ccccc3)c(O)[nH]c2c1 + CNCc1ccccc1-c1csc(C(C)Nc2nc(C)nc3cc(OC)c(OC)cc23)c1", "105%"],
  ["CC1(C)CCC(CN2CCN(c3ccc(C(=O)NS(=O)(=O)c4ccc(NCC5CCOCC5)c([N+](=O)[O-])c4)c(Oc4cnc5[nH]ccc5c4)c3)CC2)=C(c2ccc(Cl)cc2)C1 + CNCc1ccccc1-c1csc(C(C)Nc2nc(C)nc3cc(OC)c(OC)cc23)c1", "102%"],
  ["Cn1ncnc1[C@H]1c2n[nH]c(=O)c3cc(F)cc(c23)N[C@@H]1c1ccc(F)cc1 + CC1OCC2(CCN(c3cnc(Sc4ccnc(N)c4Cl)c(N)n3)CC2)C1N", "21%"]
]}

* * *

// reported viability, T/C per item
test system: KRAS patient-derived spheroids with HUVEC/MSC, viability; assay: Anticancer human tumor 323965-272-R-J2-PDC cell line growth inhibition [KRAS2]; conditions: second compound 0.1 µM; first compound 1 µM; active compounds read low;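 note: spheroids exposed to agents for 7 days; 100% = DMSO vehicle control viability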
endpoint_name: viability, T/C (%)

{"columns": ["compound", "endpoint_name", "measurement_unit", "reported"],
 "data": [
  ["CC(C)NCC(C(=O)N1CCN(c2ncnc3c2C(C)CC3O)CC1)c1ccc(Cl)cc1 (stereo not drawn) + C=CC(=O)N1CCN(c2nc(=O)n(-c3c(C)ccnc3C(C)C)c3nc(-c4c(O)cccc4F)c(F)cc23)C(C)C1", "viability, T/C", "%", 32.4],
  ["CC1OCC2(CCN(c3cnc(Sc4ccnc(N)c4Cl)c(N)n3)CC2)C1N (stereo not drawn) + COc1cc2nc(C)nc(NC(C)c3cc(N)cc(C(F)(F)F)c3)c2cc1OC1CCOC1", "viability, T/C", "%", 33],
  ["CCN1CCN(Cc2ccc(Nc3ncc(F)c(-c4cc(F)c5nc(C)n(C(C)C)c5c4)n3)nc2)CC1 + C=CC(=O)N1CCN(c2nc(OCC3CCCN3C)nc3c2CCN(c2cccc4cccc(C)c24)C3)CC1CC#N", "viability, T/C", "%", 44]
]}

* * *

test system: KRAS patient-derived spheroids with HUVEC/MSC, viability; test: Anticancer human tumor 323965-272-R-J2-PDC cell line growth inhibition [KRAS2]; details: second compound 3.16 µM; first compound 0.1 µM; active compounds read low;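 note: spheroids exposed to agents for 7 days; 100% = DMSO vehicle control viability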
Please note: viability, T/C exactly at 30% is 0. Only values below 30% get 1.

{"columns": ["compound", "label_value"],
 "data": [
  ["COC(=O)c1ccc2c(C(=Nc3ccc(N(C)C(=O)CN4CCN(C)CC4)cc3)c3ccccc3)c(O)[nH]c2c1 + C=CC(=O)N1CCN(c2nc(OCC3CCCN3C)nc3c2CCN(c2cccc4cccc(C)c24)C3)CC1CC#N", 1],
  ["CC(C)NCC(C(=O)N1CCN(c2ncnc3c2C(C)CC3O)CC1)c1ccc(Cl)cc1 (stereo not given) + CNCc1ccccc1-c1csc(C(C)Nc2nc(C)nc3cc(OC)c(OC)cc23)c1", 0],
  ["CCN1CCN(Cc2ccc(Nc3ncc(F)c(-c4cc(F)c5nc(C)n(C(C)C)c5c4)n3)nc2)CC1 + C=CC(=O)N1CCN(c2nc(=O)n(-c3c(C)ccnc3C(C)C)c3nc(-c4c(O)cccc4F)c(F)cc23)C(C)C1", 0],
  ["CN(C)C/C=C/C(=O)Nc1cc2c(Nc3ccc(F)c(Cl)c3)ncnc2cc1O[C@H]1CCOC1 + CC1OCC2(CCN(c3cnc(Sc4ccnc(N)c4Cl)c(N)n3)CC2)C1N", 0],
  ["CC(C)NCC(C(=O)N1CCN(c2ncnc3c2C(C)CC3O)CC1)c1ccc(Cl)cc1 (stereo not given) + C=CC(=O)N1CCN(c2nc(OCC3CCCN3C)nc3c2CCN(c2cccc4cccc(C)c24)C3)CC1CC#N", 1],
  ["CCN1CCN(Cc2ccc(Nc3ncc(F)c(-c4cc(F)c5nc(C)n(C(C)C)c5c4)n3)nc2)CC1 + COc1cc2nc(C)nc(NC(C)c3cc(N)cc(C(F)(F)F)c3)c2cc1OC1CCOC1", 0],
  ["O=C(c1cc(Cc2n[nH]c(=O)c3ccccc23)ccc1F)N1CCN(C(=O)C2CC2)CC1 + CNCc1ccccc1-c1csc(C(C)Nc2nc(C)nc3cc(OC)c(OC)cc23)c1", 0],
  ["Cn1ncnc1[C@H]1c2n[nH]c(=O)c3cc(F)cc(c23)N[C@@H]1c1ccc(F)cc1 + C=CC(=O)N1CCN(c2nc(=O)n(-c3c(C)ccnc3C(C)C)c3nc(-c4c(O)cccc4F)c(F)cc23)C(C)C1", 0],
  ["CCN1CCN(Cc2ccc(Nc3ncc(F)c(-c4cc(F)c5nc(C)n(C(C)C)c5c4)n3)nc2)CC1 + C=CC(=O)N1CCN(c2nc(OCC3CCCN3C)nc3c2CCN(c2cccc4cccc(C)c24)C3)CC1CC#N", 1],
  ["CC1OCC2(CCN(c3cnc(Sc4ccnc(N)c4Cl)c(N)n3)CC2)C1N (stereo not given) + C=CC(=O)N1CCN(c2nc(OCC3CCCN3C)nc3c2CCN(c2cccc4cccc(C)c24)C3)CC1CC#N", 1]
]}

* * *

system: KRAS patient-derived spheroids with HUVEC/MSC, viability; test: Anticancer human tumor 323965-272-R-J2-PDC cell line growth inhibition [KRAS2]; details: second compound 1 µM; first compound 0.0316 µM; active = viability on the fitted dose curve at most 10% of control; inactive = the rest;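 note: spheroids exposed to agents for 7 days; 100% = DMSO vehicle control viability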
Outcomes: 1.0 for active, 0.0 for inactive

{"columns": ["molecule", "label_value"],
 "data": [
  ["COC(=O)c1ccc2c(C(=Nc3ccc(N(C)C(=O)CN4CCN(C)CC4)cc3)c3ccccc3)c(O)[nH]c2c1 + CNCc1ccccc1-c1csc(C(C)Nc2nc(C)nc3cc(OC)c(OC)cc23)c1", 0.0],
  ["CC(C)n1nc(-c2ccc3oc(N)nc3c2)c2c(N)ncnc21 + CC1OCC2(CCN(c3cnc(Sc4ccnc(N)c4Cl)c(N)n3)CC2)C1N", 1.0],
  ["Cn1ncnc1[C@H]1c2n[nH]c(=O)c3cc(F)cc(c23)N[C@@H]1c1ccc(F)cc1 + C=CC(=O)N1CCN(c2nc(=O)n(-c3c(C)ccnc3C(C)C)c3nc(-c4c(O)cccc4F)c(F)cc23)C(C)C1", 0.0],
  ["CC(=O)OC12COC1CC(O)C1(C)C(=O)C(O)C3=C(C)C(OC(=O)C(O)C(NC(=O)OC(C)(C)C)c4ccccc4)CC(O)(C(OC(=O)c4ccccc4)C21)C3(C)C (stereo not given) + C=CC(=O)N1CCN(c2nc(OCC3CCCN3C)nc3c2CCN(c2cccc4cccc(C)c24)C3)CC1CC#N", 0.0],
  ["CC(=O)OC12COC1CC(O)C1(C)C(=O)C(O)C3=C(C)C(OC(=O)C(O)C(NC(=O)OC(C)(C)C)c4ccccc4)CC(O)(C(OC(=O)c4ccccc4)C21)C3(C)C (stereo not given) + C=CC(=O)N1CCN(c2nc(=O)n(-c3c(C)ccnc3C(C)C)c3nc(-c4c(O)cccc4F)c(F)cc23)C(C)C1", 0.0]
]}
